Property: normalized growth; scope: individual compounds
# measurement.notes: chemical genetic growth profiling, strain panel (AID 1159580);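 also: tested at 20 µM; growth read once vehicle control cultures reached saturation at 30 °C; 1 = growth at the plate median or of vehicle wells; lower values mean less growth of the strain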
# test.parameters: S. cerevisiae deletion strains, growth OD, locus YLR221C, strain rsa3, stronger effect = lower value
In all, about 5,500 compounds went through this assay and about 2,000 (36%) were called active. Roughly 18% stayed inconclusive and do not appear here. The list shows a part of the results.

[
  {
    "compound": "COc1ccnc(CS(=O)c2nc3ccc(OC(F)F)cc3[nH]2)c1OC (stereo unspecified)",
    "normalized growth": 0.982
  },
  {
    "compound": "CN[C@@H]1C(OC2[C@H](O[C@H]3[C@H](O)[C@@H](O)[C@H](N=C(N)N)[C@@H](O)[C@@H]3N=C(N)N)OC(C)[C@]2(O)CO)OC(CO)C(O)C1O (stereo partly specified)",
    "normalized growth": 1.02
  },
  {
    "compound": "C=NC(C(=O)NC1C(=O)N2C1SC(C)(C)C2C(=O)O)c1ccccc1 (stereo unspecified)",
    "normalized growth": 1.06
  },
  {
    "compound": "c1ccc2c(CC3=NCCN3)cccc2c1",
    "normalized growth": 0.995
  },
  {
    "compound": "NC(N)=NCCCCN=C(N)N",
    "normalized growth": 1.04
  },
  {
    "compound": "O=C(O)COc1ccc(Cl)cc1Cl",
    "normalized growth": 0.989
  },
  {
    "compound": "CC(=O)C1CC[C@H]2C3CC[C@H]4C[C@H](O)CC[C@]4(C)C3CC[C@]12C (stereo partly specified)",
    "normalized growth": 1.03
  },
  {
    "compound": "NC(=O)CS(=O)C(c1ccccc1)c1ccccc1 (stereo unspecified)",
    "normalized growth": 0.977
  },
  {
    "compound": "C[C@@H]1CC2C3CCC4=CC(=O)C=C[C@]4(C)[C@@]3(F)[C@@H](O)C[C@]2(C)[C@@]1(O)C(=O)CO (stereo partly specified)",
    "normalized growth": 1.02
  },
  {
    "compound": "COC1C=CC23c4cc5c(cc4CN(CC2O)[C@@H]3C1)OCO5 (stereo partly specified)",
    "normalized growth": 0.956
  },
  {
    "compound": "NCCCCCC(=O)O",
    "normalized growth": 0.987
  },
  {
    "compound": "CC1CCC(NC(=O)N(CCCl)N=O)CC1 (stereo unspecified)",
    "normalized growth": 0.0809
  },
  {
    "compound": "CCCn1c(=O)c2[nH]c(C3CCCC3)nc2n(CCC)c1=O",
    "normalized growth": 1
  },
  {
    "compound": "NC(N)=NCCN1CCCCCCC1",
    "normalized growth": 1.05
  },
  {
    "compound": "COc1ccc2nc(S(=O)Cc3ncc(C)c(OC)c3C)[nH]c2c1 (stereo unspecified)",
    "normalized growth": 0.904
  },
  {
    "compound": "Clc1ccc(CSC(Cn2ccnc2)c2ccc(Cl)cc2Cl)cc1 (stereo unspecified)",
    "normalized growth": 0.0604
  },
  {
    "compound": "C[C@H]1C[C@@H](O)[C@]2(O)[C@@]13CC(=O)OC[C@@]2(C)[C@](C)(O)C(=O)C3",
    "normalized growth": 1.03
  },
  {
    "compound": "O=C(O)CCCCCCCC(=O)O",
    "normalized growth": 1.01
  },
  {
    "compound": "CC[C@@H]1OC(=O)C[C@@H](O)[C@H](C)[C@@H](O[C@@H]2O[C@H](C)[C@@H](O)[C@H](N(C)C)[C@H]2O)[C@@H](CCN2C[C@H](C)C[C@H](C)C2)C[C@@H](C)C(=O)/C=C/C(C)=C\\[C@@H]1CO[C@@H]1O[C@H](C)[C@@H](O)[C@@H](OC)[C@H]1OC",
    "normalized growth": 0.99
  },
  {
    "compound": "CC(C)=CC1C(C(=O)OCc2cccc(Oc3ccccc3)c2)C1(C)C (stereo unspecified)",
    "normalized growth": 1.01
  },
  {
    "compound": "Clc1ccc(COC(Cn2ccnc2)c2ccc(Cl)cc2Cl)cc1 (stereo unspecified)",
    "normalized growth": 0.0566
  }
]
